Below: a set of entries, each annotated with reported inhibition.
# STUDY_SYSTEM: Serine/threonine-protein kinase PAK 2 (Homo sapiens) (UniProt Q13177);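 note: reported values are mean inhibition of PAK2, averaged over measurements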
# Sequence (Q13177 whole entry): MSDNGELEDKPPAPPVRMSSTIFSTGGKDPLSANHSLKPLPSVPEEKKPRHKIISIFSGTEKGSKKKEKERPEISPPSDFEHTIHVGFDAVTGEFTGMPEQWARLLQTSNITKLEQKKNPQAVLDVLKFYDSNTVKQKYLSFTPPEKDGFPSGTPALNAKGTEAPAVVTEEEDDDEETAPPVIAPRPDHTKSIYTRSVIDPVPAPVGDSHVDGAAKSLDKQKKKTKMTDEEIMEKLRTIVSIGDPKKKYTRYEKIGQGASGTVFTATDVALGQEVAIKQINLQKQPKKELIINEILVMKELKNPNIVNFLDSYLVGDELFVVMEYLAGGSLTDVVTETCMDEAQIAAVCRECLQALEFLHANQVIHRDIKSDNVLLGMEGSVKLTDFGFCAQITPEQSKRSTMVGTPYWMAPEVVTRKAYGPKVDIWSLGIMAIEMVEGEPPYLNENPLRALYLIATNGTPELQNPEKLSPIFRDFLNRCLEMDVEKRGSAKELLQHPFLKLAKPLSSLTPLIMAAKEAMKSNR
# STATED_CONDITIONS: at 1 µM
Answer with a number only, understood to be in %.

Query: State its inhibition for this molecule: "CCN1CCC(CC(=O)Nc2n[nH]c3nnc(-c4cccc(F)c4F)cc23)CC1"
Result: 0.33

Query: Name the recorded inhibition of the molecule listed here: "Cc1cccc(Nc2ncc(-c3ccccc3)o2)c1"
Result: 2.06

Query: Quick one: give measured inhibition for "CCn1c(-c2nonc2N)nc2ccccc21"
Result: 2.08

Query: Give me measured inhibition, please, for this molecule: "NS(=O)(=O)c1ccc(N/N=C2\C(=O)Nc3ccc4ncccc4c32)cc1"
Result: 3.9

Continuing:
Query: Supply reported inhibition belonging to this molecule: "Nc1nc(-c2ccc(F)cc2)c(-c2ccc3ncccc3n2)s1"
Result: 2.07

Query: // Input: "COc1ccc(-c2nn3ncccc3c2-c2ccnc(Nc3ccc4c(c3)OCCO4)n2)cc1" . Output its inhibition only.
Result: 0.11

Query: # return recorded inhibition for input "COc1ccc2c(-c3ccnc(Nc4cccc(OC(F)(F)F)c4)n3)cnn2n1"
Result: 2.6

Values compiled from ChEMBL document CHEMBL1961873.
